Ref: patent US11498899B2

System: corn (Zea mays)
Test Method Notes: Test A postemergence, visual injury rating 0-100
Format: in vivo
Condition Set: 500 g ai/ha, 0 to 100 scale
Measured Metric: Corn plant response rating

Molecule	Numeric Result
CC1=[N+]([O-])C(C(=O)Nc2cccc(F)c2F)C(c2ccc(F)c(Cl)c2)C1 (racemic)	90
CC1=[N+]([O-])C(C(=O)Nc2ccncc2C(F)(F)F)C(c2ccc(C(F)(F)F)cc2)C1 (racemic)	0
CC1=[N+]([O-])C(C(=O)Nc2cccc(F)c2F)C(c2ccc(C(F)(F)F)c(C)c2)C1 (racemic)	80
CC1=[N+]([O-])C(C(=O)Nc2cccc(F)c2F)C(c2c(F)cccc2Cl)C1 (racemic)	0
CSc1ccccc1NC(=O)C1C(c2ccc(C(F)(F)F)cc2)CC(C)=[N+]1[O-] (racemic)	0
CC1=[N+]([O-])C(C(=O)Nc2cccnc2F)C(c2ccc(C(F)(F)F)cc2)C1 (racemic)	0
CC1=[N+]([O-])[C@H](C(=O)Nc2cccc(F)c2F)[C@@H](c2ccc(C(F)(F)F)c(F)c2)C1 (relative stereo)	90

###

Tested on: barnyardgrass (Echinochloa crus-galli)
Test Method Notes: Test A postemergence, visual injury rating 0-100
Format: in vivo
Condition Set: 500 g ai/ha, 0 to 100 scale
Listed here are molecules together with their documented Barnyardgrass plant response rating.

Molecule	Study Target	Barnyardgrass plant response rating
CC1=[N+]([O-])[C@H](C(=O)Nc2cccc(F)c2F)[C@@H](c2ccc(C(F)F)cc2)C1 (relative stereo) [Compound 93]	barnyardgrass (Echinochloa crus-galli)	90
CC1=[N+]([O-])C(C(=O)Nc2cccc(F)c2F)C(c2cc(C(F)(F)F)ccc2C)C1 (stereo not shown) [Compound 98]	barnyardgrass (Echinochloa crus-galli)	90
CC1=[N+]([O-])C(C(=O)Nc2cccc(F)c2F)C(c2cc(F)cc(Oc3ccc(Cl)nc3)c2)C1 (racemic) [Compound 50]	barnyardgrass (Echinochloa crus-galli)	50
CC1=[N+]([O-])C(C(=O)Nc2cccc(F)c2F)C(c2cc(C)cc(C(F)(F)F)c2)C1 (stereo not shown) [Compound 92]	barnyardgrass (Echinochloa crus-galli)	90

###

Tested on: foxtail, giant (giant foxtail, Setaria faberii)
Test Method Notes: Test A postemergence, visual injury rating 0-100
Format: in vivo
Condition Set: 125 g ai/ha, 0 to 100 scale
Listed here are compounds together with their documented Foxtail, Giant plant response rating.

Compound	Foxtail, Giant plant response rating
CC1=[N+]([O-])C(C(=O)Nc2cccc(F)c2F)C(c2ccc(C(F)(F)F)c(Br)c2)C1 (racemic)	40
CC1=[N+]([O-])C(C(=O)Nc2cccc(F)c2F)C(c2ccc3c(c2)OCO3)C1 (racemic)	40
CC1=[N+]([O-])C(C(=O)Nc2cccc(F)c2F)C(c2cc(F)c(C(F)(F)F)c(F)c2)C1 (racemic)	80
CC1=[N+]([O-])C(C(=O)Nc2cccc(F)c2F)C(c2ccc(F)c(Oc3ccc(Cl)nc3)c2)C1 (racemic)	0

###

Listed here are compounds together with their documented Foxtail, Giant plant response rating.
Tested on: foxtail, giant (giant foxtail, Setaria faberii)
Test Method Notes: Test A postemergence, visual injury rating 0-100
Format: in vivo
Condition Set: 125 g ai/ha, 0 to 100 scale

Compound	Foxtail, Giant plant response rating
CC1=[N+]([O-])[C@@H](C(=O)Nc2cccc(F)c2F)[C@H](c2cccc(OC(C)(C)C)c2)C1	90
CC1=[N+]([O-])C(C(=O)Nc2cccc(F)c2F)C(c2cc(F)c(F)c(Oc3ncc(F)cn3)c2)C1 (racemic)	60
CC1=[N+]([O-])C(C(=O)Nc2cccc(F)c2F)C(c2cccc(F)c2)C1 (racemic)	90
CC1=[N+]([O-])C(C(=O)Nc2cccc(F)c2F)C(c2ccc(Cl)c(F)c2)C1 (racemic)	60
CCOc1cc(OC)cc(C2CC(C)=[N+]([O-])C2C(=O)Nc2cccc(F)c2F)c1 (racemic)	60
CC1=[N+]([O-])C(C(=O)Nc2cccc(F)c2F)C(c2cc(F)c(F)c(F)c2)C1 (stereo not shown)	80
CC1=[N+]([O-])[C@H](C(=O)Nc2cccc(F)c2F)[C@@H](c2ccc(C(F)(F)F)c(F)c2)C1 (relative stereo)	70

###

Tested on: foxtail, giant (giant foxtail, Setaria faberii)
Test Method Notes: Test A preemergence, visual injury rating 0-100
Type: in vivo
Condition Set: 500 g ai/ha
Measured Metric: Foxtail, Giant plant response rating (0 to 100 scale)

Molecule	Numeric Result
CC1=[N+]([O-])C(C(=O)Nc2cccc(F)c2F)C(c2ccc(Cl)c(C(F)(F)F)c2)C1 (racemic)	90
CC1=[N+]([O-])C(C(=O)Nc2cccc(F)c2F)C(c2cccc(F)c2C)C1 (racemic)	90
COc1cc(C)cc(C2CC(C)=[N+]([O-])C2C(=O)Nc2cccc(F)c2F)c1 (stereo not drawn)	90
CC1=[N+]([O-])C(C(=O)Nc2cccc(F)c2F)C(c2cc(F)c(F)c(Oc3ncc(F)cn3)c2)C1 (racemic)	100
CC1=[N+]([O-])C(C(=O)Nc2cccc(F)c2F)C(c2cccc(Oc3ncc(Cl)cn3)c2)C1 (racemic)	90
CC1=[N+]([O-])C(C(=O)Nc2cccc(F)c2F)C(c2ccc(F)c(Cl)c2)C1 (racemic)	90
CC1=[N+]([O-])C(C(=O)Nc2cccc(F)c2F)C(c2cc(C)cc(C(F)(F)F)c2)C1 (stereo not drawn)	90
CCOc1cc(OC)cc(C2CC(C)=[N+]([O-])C2C(=O)Nc2cccc(F)c2F)c1 (racemic)	90
COc1cc(C2CC(C)=[N+]([O-])C2C(=O)Nc2cccc(F)c2F)ccc1C(F)(F)F (stereo not drawn)	90
CC1=[N+]([O-])C(C(=O)Nc2cccc(F)c2F)C(c2cc(C(F)(F)F)cc(C(F)(F)F)c2)C1 (racemic)	90
CC1=[N+]([O-])C(C(=O)Nc2cccc(F)c2F)C(c2ccc(F)cc2Oc2ncc(F)cn2)C1 (racemic)	100
CC1=[N+]([O-])C(C(=O)Nc2cccc(F)c2F)C(c2cc(C)n(Cc3ccc(Cl)cc3)c(=O)c2)C1 (racemic)	0
CC1=[N+]([O-])C(C(=O)Nc2cccc(F)c2F)C(c2ccc(C)c(Br)c2)C1 (racemic)	90
CC1=[N+]([O-])C(C(=O)Nc2cccc(F)c2F)C(c2ccccc2)C1 (stereo not drawn)	90
CC1=[N+]([O-])[C@H](C(=O)Nc2cccc(F)c2F)[C@@H](c2ccc(C(F)(F)F)c(F)c2)C1 (relative stereo)	90
CC1=[N+]([O-])C(C(=O)Nc2cccc(F)c2F)C(c2cccc(Cl)n2)C1 (stereo not drawn)	30
CCc1cc(CC)cc(C2CC(C)=[N+]([O-])C2C(=O)Nc2cccc(F)c2F)c1 (racemic)	90
CC1=[N+]([O-])C(C(=O)Nc2cccc(F)c2F)C(c2cccc(Br)n2)C1 (racemic)	90

###

System: wheat (Triticum aestivum)
Test Method Notes: Test A postemergence, visual injury rating 0-100
Assay type: in vivo
Condition Set: 125 g ai/ha, 0 to 100 scale
Text: […]
Measured Metric: Wheat plant response rating

Compound	Study Target	Numeric Result
CC1=[N+]([O-])[C@H](C(=O)Nc2ccc(F)nc2F)[C@@H](c2ccc(C(F)(F)F)cc2)C1 (relative stereo)	wheat (Triticum aestivum)	10
CC1=[N+]([O-])C(C(=O)Nc2cccc(F)c2F)C(c2ccc(C)c(Cl)c2)C1 (racemic)	wheat (Triticum aestivum)	30
CC1=[N+]([O-])C(C(=O)Nc2cccc(F)c2Cl)C(c2ccc(C(F)(F)F)cc2)C1 (racemic)	wheat (Triticum aestivum)	0
CC1=[N+]([O-])C(C(=O)Nc2cccc(F)c2F)C(c2cccc(C)n2)C1 (racemic)	wheat (Triticum aestivum)	0
CC1=[N+]([O-])C(C(=O)Nc2cccc(F)c2F)C(c2cc(C)cc(Cl)c2)C1 (stereo not shown)	wheat (Triticum aestivum)	40
CC1=[N+]([O-])C(C(=O)Nc2ccncc2C(F)(F)F)C(c2ccc(C(F)(F)F)cc2)C1 (racemic)	wheat (Triticum aestivum)	0
CC1=[N+]([O-])C(C(=O)Nc2cccc(F)c2F)C(c2ccc(C)c(C)c2)C1 (racemic)	wheat (Triticum aestivum)	50

###

Test system: ragweed (common ragweed, Ambrosia elatior)
Test Method Notes: Test A postemergence, visual injury rating 0-100
Type: in vivo
Condition Set: 500 g ai/ha, 0 to 100 scale

Compound	Ragweed plant response rating
CC1=[N+]([O-])C(C(=O)Nc2cccc(F)c2F)C(c2cc(C)c(F)c(C)c2)C1 (racemic)	70
CC1=[N+]([O-])C(C(=O)Nc2ccccc2S(C)(=O)=O)C(c2ccc(C(F)(F)F)cc2)C1 (racemic)	0
CC1=[N+]([O-])C(C(=O)Nc2cccc(F)c2F)C(c2cccc(Oc3ccc(Cl)cn3)c2)C1 (racemic)	20
CC1=[N+]([O-])C(C(=O)Nc2cccc(F)c2F)C(c2cc(F)c(F)c(Oc3ncc(F)cn3)c2)C1 (racemic)	0

###

Tested on: barnyardgrass (Echinochloa crus-galli)
Test Method Notes: Test A postemergence, visual injury rating 0-100
Format: in vivo
Condition Set: 125 g ai/ha, 0 to 100 scale

Compound	Barnyardgrass plant response rating
CC1=[N+]([O-])C(C(=O)Nc2cccc(F)c2F)C(c2cccc(C#N)c2)C1 (racemic)	70
CC1=[N+]([O-])C(C(=O)Nc2cccc(F)c2F)C(c2cccc(C)c2C)C1 (racemic)	80
CC1=[N+]([O-])C(C(=O)Nc2cccc(F)c2C#N)C(c2ccc(C(F)(F)F)cc2)C1 (racemic)	30
CC1=[N+]([O-])C(C(=O)Nc2cccc(F)c2F)C(c2cccc(C(F)(F)F)c2C)C1 (racemic)	70
CC1=[N+]([O-])[C@@H](C(=O)Nc2cccc(F)c2F)[C@H](c2cccc(C(F)(F)F)c2)C1	50
CC1=[N+]([O-])C(C(=O)Nc2cccc(F)c2F)C(c2cc(F)c(F)c(Oc3ncc(F)cn3)c2)C1 (racemic)	40
CC1=[N+]([O-])C(C(=O)Nc2cccc(F)c2F)C(c2ccc(C)c(C(F)(F)F)c2)C1 (racemic)	70
